- ASSAYED SYSTEM: PKCepsilon (Homo sapiens, UniProt Q02156)
- Sequence (Q02156 1-737): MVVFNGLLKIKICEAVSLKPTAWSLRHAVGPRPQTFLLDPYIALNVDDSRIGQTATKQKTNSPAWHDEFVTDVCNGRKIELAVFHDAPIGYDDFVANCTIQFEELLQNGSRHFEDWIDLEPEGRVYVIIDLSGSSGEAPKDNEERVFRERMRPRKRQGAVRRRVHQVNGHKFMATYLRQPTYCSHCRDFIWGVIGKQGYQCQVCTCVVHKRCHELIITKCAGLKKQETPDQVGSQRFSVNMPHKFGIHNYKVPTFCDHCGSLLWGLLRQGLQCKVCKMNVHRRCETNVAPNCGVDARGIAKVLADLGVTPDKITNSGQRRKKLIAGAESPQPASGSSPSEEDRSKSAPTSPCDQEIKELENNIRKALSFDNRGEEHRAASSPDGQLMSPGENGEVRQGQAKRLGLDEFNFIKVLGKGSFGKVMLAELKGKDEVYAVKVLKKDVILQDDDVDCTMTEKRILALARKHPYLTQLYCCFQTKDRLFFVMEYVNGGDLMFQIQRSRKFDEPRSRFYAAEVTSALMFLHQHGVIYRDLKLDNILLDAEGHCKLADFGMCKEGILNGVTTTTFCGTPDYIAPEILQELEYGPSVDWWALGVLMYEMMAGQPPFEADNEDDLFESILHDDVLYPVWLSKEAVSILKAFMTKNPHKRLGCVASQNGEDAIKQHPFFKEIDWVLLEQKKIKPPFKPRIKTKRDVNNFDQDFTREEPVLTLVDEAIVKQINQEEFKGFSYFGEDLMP
READOUT LABEL: IC50 (µM)

# SMILES RECORD, ASSAY RESULT
rows = [
    ("Nc1ncnc2c1ncn2[C@@H]1O[C@H](COP(=O)(O)OP(=O)(O)C(Cl)(Cl)P(=O)(O)O)[C@@H](O)[C@H]1O", 0.043),
]

* * *

- ASSAYED SYSTEM: TYK2 (Homo sapiens, UniProt P29597)
- Sequence (P29597 whole entry): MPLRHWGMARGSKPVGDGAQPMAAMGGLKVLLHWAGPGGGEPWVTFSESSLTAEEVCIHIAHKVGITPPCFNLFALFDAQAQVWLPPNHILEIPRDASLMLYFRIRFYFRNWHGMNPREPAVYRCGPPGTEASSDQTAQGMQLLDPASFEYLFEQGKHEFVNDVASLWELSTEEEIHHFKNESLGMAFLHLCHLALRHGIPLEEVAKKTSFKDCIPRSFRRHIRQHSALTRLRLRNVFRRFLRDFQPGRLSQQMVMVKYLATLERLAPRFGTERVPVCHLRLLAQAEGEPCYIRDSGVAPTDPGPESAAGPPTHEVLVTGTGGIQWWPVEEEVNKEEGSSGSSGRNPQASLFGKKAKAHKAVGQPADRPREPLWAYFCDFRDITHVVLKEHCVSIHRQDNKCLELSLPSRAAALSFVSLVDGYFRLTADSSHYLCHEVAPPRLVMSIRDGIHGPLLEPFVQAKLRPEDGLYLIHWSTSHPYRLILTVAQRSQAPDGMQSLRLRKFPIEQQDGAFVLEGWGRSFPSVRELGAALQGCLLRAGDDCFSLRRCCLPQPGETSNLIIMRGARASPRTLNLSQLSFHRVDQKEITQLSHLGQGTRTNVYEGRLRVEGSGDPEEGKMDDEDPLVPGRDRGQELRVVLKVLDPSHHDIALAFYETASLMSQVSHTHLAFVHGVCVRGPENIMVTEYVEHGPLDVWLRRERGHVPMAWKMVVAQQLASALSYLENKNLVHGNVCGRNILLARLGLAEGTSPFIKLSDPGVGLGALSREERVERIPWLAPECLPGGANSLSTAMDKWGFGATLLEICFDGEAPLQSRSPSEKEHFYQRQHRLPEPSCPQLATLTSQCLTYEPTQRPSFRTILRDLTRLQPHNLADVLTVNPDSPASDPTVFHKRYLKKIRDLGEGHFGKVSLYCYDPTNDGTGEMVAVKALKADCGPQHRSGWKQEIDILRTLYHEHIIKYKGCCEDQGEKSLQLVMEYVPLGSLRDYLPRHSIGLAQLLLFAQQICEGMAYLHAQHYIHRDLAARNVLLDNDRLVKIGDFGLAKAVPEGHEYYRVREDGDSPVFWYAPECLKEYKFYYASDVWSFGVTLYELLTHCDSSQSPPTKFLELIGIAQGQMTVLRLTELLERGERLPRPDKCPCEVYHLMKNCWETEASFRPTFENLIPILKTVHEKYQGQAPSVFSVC
READOUT LABEL: IC50

# SMILES RECORD, ASSAY RESULT
data = [
    ("Nc1ncnc2c1ncn2[C@@H]1O[C@H](COP(=O)(O)OP(=O)(O)C(Cl)(Cl)P(=O)(O)O)[C@@H](O)[C@H]1O", "~230 nM"),
]

* * *

- ASSAYED SYSTEM: EGFR (G719S) (Homo sapiens, UniProt P00533, G719S)
- Sequence (P00533 25-1210 G719S): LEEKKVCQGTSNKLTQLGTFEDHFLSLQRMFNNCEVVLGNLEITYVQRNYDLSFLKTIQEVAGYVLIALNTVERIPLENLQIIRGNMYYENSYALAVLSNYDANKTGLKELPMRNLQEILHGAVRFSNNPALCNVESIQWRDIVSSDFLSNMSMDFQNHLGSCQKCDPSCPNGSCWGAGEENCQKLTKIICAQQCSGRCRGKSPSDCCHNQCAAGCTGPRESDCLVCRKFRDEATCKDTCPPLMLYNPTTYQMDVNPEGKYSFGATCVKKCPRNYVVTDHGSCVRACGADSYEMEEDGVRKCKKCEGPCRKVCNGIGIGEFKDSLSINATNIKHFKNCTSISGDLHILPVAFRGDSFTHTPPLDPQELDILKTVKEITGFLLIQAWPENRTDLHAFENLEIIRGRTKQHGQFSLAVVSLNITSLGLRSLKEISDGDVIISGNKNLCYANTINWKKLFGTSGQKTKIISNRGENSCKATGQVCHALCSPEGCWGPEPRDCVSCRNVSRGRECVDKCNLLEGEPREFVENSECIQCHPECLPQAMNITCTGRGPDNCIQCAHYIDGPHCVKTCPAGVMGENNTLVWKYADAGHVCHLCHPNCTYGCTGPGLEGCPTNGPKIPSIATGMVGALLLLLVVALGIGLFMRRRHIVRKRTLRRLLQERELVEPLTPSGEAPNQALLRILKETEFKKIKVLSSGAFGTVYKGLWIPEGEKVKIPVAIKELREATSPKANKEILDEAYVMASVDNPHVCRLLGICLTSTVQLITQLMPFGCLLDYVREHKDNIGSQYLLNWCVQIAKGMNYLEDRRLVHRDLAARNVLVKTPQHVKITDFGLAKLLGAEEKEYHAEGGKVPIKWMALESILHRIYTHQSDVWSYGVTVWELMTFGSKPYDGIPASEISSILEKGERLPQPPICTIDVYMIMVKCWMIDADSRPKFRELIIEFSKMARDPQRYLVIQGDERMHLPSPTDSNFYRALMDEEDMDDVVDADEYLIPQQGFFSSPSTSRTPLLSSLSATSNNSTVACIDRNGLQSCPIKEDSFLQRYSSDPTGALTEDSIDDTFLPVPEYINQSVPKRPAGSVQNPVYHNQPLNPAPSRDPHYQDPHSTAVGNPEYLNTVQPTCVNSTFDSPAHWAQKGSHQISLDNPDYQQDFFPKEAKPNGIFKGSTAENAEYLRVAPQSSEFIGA
- PROTOCOL DESCRIPTION: HotSpot 10-dose dose-response kinase assay: EGFR
- MEASUREMENT CONTEXT: read-out: Dose-response IC50 EGFR (G719S); 10-dose dose-response, 1 μM ATP

# SMILES RECORD, IC50
data = [
    ("Nc1ncnc2c1ncn2[C@@H]1O[C@H](COP(=O)(O)OP(=O)(O)C(Cl)(Cl)P(=O)(O)O)[C@@H](O)[C@H]1O", "760 nM"),
]

* * *

- ASSAYED SYSTEM: RET (Homo sapiens, UniProt P07949)
pIC50: −log10 of the molar value.

# SMILES RECORD, pIC50
records = [
    ("Nc1ncnc2c1ncn2[C@@H]1O[C@H](COP(=O)(O)OP(=O)(O)C(Cl)(Cl)P(=O)(O)O)[C@@H](O)[C@H]1O", 6.85),
]

* * *

- ASSAYED SYSTEM: JAK2 (Homo sapiens)
READOUT LABEL: IC50 (nM)

# COMPOUND, MEASURE UNIT, ASSAY RESULT
rows = [
    ("Nc1ncnc2c1ncn2[C@@H]1O[C@H](COP(=O)(O)OP(=O)(O)C(Cl)(Cl)P(=O)(O)O)[C@@H](O)[C@H]1O [compound 4]", "nM", 13),
]

* * *

- ASSAYED SYSTEM: EGFR (L858R, T790M) (Homo sapiens, UniProt P00533, L858R/T790M)
- PROTOCOL DESCRIPTION: HotSpot 10-dose dose-response kinase assay: EGFR
- MEASUREMENT CONTEXT: read-out: Dose-response IC50 EGFR (L858R, T790M); 10-dose dose-response, 1 μM ATP
Reported values of IC50 for individual entries
READOUT LABEL: IC50 (nM)

# SMILES RECORD, ASSAYED SYSTEM, MEASURE UNIT, ASSAY RESULT
rows = [
    ("Nc1ncnc2c1ncn2[C@@H]1O[C@H](COP(=O)(O)OP(=O)(O)C(Cl)(Cl)P(=O)(O)O)[C@@H](O)[C@H]1O", "EGFR (L858R, T790M) (Homo sapiens, UniProt P00533, L858R/T790M)", "nM", 80),
    ("Nc1ncnc2c1ncn2[C@@H]1O[C@H](COP(=O)(O)OP(=O)(O)C(Br)(Br)P(=O)(O)O)[C@@H](O)[C@H]1O", "EGFR (L858R, T790M) (Homo sapiens, UniProt P00533, L858R/T790M)", "nM", 16),
]

* * *

- ASSAYED SYSTEM: JAK1 (Homo sapiens, UniProt P23458)
- Sequence (P23458 whole entry): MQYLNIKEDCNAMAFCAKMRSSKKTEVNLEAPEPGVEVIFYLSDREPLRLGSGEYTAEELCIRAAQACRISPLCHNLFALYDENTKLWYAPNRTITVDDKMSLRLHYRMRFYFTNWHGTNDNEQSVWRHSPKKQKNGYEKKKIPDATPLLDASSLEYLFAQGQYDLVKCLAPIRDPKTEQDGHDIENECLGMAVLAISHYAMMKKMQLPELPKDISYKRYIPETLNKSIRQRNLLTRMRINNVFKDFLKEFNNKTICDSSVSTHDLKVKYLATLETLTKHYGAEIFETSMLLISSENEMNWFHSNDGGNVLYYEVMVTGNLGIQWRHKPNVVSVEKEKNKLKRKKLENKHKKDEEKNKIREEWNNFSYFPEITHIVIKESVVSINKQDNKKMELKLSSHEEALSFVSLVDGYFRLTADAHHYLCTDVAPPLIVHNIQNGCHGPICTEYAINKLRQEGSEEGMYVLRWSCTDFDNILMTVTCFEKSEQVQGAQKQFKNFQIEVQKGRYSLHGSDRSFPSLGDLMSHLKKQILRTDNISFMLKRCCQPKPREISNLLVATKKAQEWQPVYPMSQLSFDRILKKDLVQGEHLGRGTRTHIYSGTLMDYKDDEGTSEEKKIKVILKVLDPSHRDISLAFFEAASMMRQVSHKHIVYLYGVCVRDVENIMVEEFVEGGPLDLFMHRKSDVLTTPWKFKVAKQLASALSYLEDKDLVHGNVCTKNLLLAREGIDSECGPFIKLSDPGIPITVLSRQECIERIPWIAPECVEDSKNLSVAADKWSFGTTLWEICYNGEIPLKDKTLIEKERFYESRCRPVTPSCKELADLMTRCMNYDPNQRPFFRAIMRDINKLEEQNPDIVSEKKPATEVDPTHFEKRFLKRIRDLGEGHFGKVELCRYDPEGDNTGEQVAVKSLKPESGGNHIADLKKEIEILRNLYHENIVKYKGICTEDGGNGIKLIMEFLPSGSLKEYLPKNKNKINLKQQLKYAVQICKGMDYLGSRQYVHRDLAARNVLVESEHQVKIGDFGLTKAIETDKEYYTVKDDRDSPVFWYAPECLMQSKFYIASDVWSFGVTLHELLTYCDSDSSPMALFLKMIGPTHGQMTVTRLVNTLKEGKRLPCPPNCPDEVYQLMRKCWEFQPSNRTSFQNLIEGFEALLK
- PROTOCOL DESCRIPTION: HotSpot 10-dose dose-response kinase assay: JAK1
- Assay type: biochemical
- MEASUREMENT CONTEXT: read-out: Dose-response IC50 JAK1; 10-dose dose-response, 1 μM ATP
pIC50: −log10 of the molar value.

# SMILES RECORD, ASSAYED SYSTEM, pIC50
records = [
    ("Nc1ncnc2c1ncn2[C@@H]1O[C@H](COP(=O)(O)OP(=O)(O)C(Cl)(Cl)P(=O)(O)O)[C@@H](O)[C@H]1O", "JAK1 (Homo sapiens, UniProt P23458)", 7.18),
]

* * *

- ASSAYED SYSTEM: BRAF (Homo sapiens, UniProt P15056)
- Sequence (P15056 whole entry): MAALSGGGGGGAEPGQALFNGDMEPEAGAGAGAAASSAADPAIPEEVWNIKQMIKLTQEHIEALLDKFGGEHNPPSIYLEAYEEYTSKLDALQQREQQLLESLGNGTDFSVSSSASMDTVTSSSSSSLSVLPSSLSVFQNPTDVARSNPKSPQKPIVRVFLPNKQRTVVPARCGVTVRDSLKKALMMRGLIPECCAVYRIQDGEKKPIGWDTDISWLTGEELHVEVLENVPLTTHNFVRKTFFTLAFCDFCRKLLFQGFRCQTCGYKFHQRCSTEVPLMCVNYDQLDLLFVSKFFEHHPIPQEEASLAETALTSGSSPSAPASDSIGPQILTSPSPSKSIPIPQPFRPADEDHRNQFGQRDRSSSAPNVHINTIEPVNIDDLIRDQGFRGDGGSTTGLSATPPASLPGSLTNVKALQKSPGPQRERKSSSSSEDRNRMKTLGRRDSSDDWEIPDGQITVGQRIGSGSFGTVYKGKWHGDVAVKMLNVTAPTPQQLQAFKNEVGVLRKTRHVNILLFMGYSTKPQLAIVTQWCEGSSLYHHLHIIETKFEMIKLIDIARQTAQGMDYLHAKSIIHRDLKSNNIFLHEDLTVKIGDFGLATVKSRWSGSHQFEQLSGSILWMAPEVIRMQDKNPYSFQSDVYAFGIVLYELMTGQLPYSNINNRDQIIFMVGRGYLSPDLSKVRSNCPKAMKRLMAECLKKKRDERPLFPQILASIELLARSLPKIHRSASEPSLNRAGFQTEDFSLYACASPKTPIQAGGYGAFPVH

# COMPOUND, IC50 [µM]
data = [
    ("Nc1ncnc2c1ncn2[C@@H]1O[C@H](COP(=O)(O)OP(=O)(O)C(Cl)(Cl)P(=O)(O)O)[C@@H](O)[C@H]1O [compound 4]", 6.4),
]

* * *

- ASSAYED SYSTEM: BRAF (V599E) (Homo sapiens, UniProt P15056, V600E)
- Sequence (P15056 416-766 V600E limits assumed): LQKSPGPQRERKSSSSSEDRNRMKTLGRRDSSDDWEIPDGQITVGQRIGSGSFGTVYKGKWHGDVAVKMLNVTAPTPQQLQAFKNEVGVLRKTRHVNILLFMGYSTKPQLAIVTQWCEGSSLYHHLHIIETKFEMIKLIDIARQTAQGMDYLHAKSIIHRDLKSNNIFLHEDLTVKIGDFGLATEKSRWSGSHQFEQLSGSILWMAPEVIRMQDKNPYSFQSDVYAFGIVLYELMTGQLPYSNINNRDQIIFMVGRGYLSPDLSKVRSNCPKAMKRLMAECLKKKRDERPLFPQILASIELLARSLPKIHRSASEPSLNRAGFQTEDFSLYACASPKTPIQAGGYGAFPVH
- PROTOCOL DESCRIPTION: HotSpot 10-dose dose-response kinase assay: BRAF
- MEASUREMENT CONTEXT: read-out: Dose-response IC50 BRAF (V599E); 10-dose dose-response, 1 μM ATP
READOUT LABEL: IC50 (µM)

# SMILES RECORD, MEASURE UNIT, ASSAY RESULT
records = [
    ("Nc1ncnc2c1ncn2[C@@H]1O[C@H](COP(=O)(O)OP(=O)(O)C(Cl)(Cl)P(=O)(O)O)[C@@H](O)[C@H]1O", "µM", 230),
]

* * *

- ASSAYED SYSTEM: EGFR (T790M) (Homo sapiens, UniProt P00533, T790M)
- PROTOCOL DESCRIPTION: HotSpot 10-dose dose-response kinase assay: EGFR
- MEASUREMENT CONTEXT: read-out: Dose-response IC50 EGFR (T790M); 10-dose dose-response, 1 μM ATP
READOUT LABEL: IC50 (nM)

# SMILES RECORD, ASSAYED SYSTEM, READOUT LABEL, MEASURE UNIT, ASSAY RESULT
records = [
    ("Nc1ncnc2c1ncn2[C@@H]1O[C@H](COP(=O)(O)OP(=O)(O)C(Cl)(Cl)P(=O)(O)O)[C@@H](O)[C@H]1O", "EGFR (T790M) (Homo sapiens, UniProt P00533, T790M)", "IC50", "nM", 270),
]

* * *

- ASSAYED SYSTEM: JAK3 (Homo sapiens, UniProt P52333)
- Sequence (P52333 1-1124): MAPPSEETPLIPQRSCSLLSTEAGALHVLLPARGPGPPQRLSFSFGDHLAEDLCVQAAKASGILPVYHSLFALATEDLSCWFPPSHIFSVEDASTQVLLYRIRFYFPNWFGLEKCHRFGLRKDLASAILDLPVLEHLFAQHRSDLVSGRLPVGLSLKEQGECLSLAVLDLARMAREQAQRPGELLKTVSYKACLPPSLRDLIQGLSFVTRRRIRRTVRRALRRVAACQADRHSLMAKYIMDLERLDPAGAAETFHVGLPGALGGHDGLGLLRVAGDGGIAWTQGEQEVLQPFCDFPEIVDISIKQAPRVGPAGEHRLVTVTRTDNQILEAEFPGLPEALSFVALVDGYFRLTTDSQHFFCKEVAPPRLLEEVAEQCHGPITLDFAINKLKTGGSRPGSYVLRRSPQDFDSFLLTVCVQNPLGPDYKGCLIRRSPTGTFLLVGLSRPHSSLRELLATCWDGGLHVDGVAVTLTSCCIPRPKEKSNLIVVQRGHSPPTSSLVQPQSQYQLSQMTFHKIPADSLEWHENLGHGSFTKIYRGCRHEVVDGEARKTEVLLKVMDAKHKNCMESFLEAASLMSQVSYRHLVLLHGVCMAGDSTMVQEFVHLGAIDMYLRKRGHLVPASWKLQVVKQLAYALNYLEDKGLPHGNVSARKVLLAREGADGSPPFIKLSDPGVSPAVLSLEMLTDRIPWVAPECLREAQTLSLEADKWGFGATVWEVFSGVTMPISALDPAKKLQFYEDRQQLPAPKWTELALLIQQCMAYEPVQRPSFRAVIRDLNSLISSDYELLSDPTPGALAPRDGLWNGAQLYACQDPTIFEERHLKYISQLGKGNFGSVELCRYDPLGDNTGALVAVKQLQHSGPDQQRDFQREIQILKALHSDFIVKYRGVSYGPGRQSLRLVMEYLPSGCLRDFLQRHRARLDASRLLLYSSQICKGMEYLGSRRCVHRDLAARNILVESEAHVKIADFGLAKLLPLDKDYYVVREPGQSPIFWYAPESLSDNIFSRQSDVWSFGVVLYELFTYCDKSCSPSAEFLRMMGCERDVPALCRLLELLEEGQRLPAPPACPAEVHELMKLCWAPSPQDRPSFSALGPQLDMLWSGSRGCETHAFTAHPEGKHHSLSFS

# SMILES RECORD, IC50, nM
rows = [
    ("Nc1ncnc2c1ncn2[C@@H]1O[C@H](COP(=O)(O)OP(=O)(O)C(Cl)(Cl)P(=O)(O)O)[C@@H](O)[C@H]1O", 5),
]
